The reported measurements were obtained from paper PMC11480844.

B1: H2-Kb / E8 (parent)
chain 1: GDSVTQTEGLVTVTEGLPVKLNCTYQTTYLTIAFFWYVQYLNEAPQVLLKSSTDNKRTEHQGFHATLHKSSSSFHLQKSSAQLSDSALYYCALNTNTGKLTFGDGTVLTVKP
chain 2: EAAVTQSPRNKVAVTGGKVTLSCNQTNNHNNMYWYRQDTGHGLRLIHYSYGAGSTEKGDIPDGYKASRPSQENFSLILELATPSQTSVYFCASGDWGAGTGQLYFGEGSKLTVL
chain 3: not shown
chain 4: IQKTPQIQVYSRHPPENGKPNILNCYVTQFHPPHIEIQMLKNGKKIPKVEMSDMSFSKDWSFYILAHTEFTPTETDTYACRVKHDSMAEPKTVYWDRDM
chain 5: SIINFEKL

Variants of: B1
test-description: % of reporter cells activated (NFAT-GFP), raw; note: test concentration or dose not given here
cond: with E8; scale: % of reporter cells activated
Friendly reminder: ratio to parent below 0.5 is label 1, at or above is label 0.

Hello, I'm reviewing records and need to know if ratio to parent of chain 5 I2R is below 0.5. Could you check?
label 1

Hello, I'm reviewing records and need to know if ratio to parent of chain 5 F5G is below 0.5. Could you check?
label 0

Hello, I'm reviewing records and need to know if ratio to parent of chain 5 I2T is below 0.5. Could you check?
label 0

Hello, I'm reviewing records and need to know if ratio to parent of chain 5 F5S is below 0.5. Could you check?
label 0

Hello, I'm reviewing records and need to know if ratio to parent of chain 5 K7E is below 0.5. Could you check?
label 1

Hello, I'm reviewing records and need to know if ratio to parent of chain 5 L8A is below 0.5. Could you check?
label 0
